targetOfAssay: T1, CRBN, Q96SW2;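 also: pooled lentiviral library of zinc finger degron-EGFP fusions in mCherry-positive Jurkat cells, FACS-sorted after compound exposure, with degron abundance counted by next-generation sequencing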
T1 chain: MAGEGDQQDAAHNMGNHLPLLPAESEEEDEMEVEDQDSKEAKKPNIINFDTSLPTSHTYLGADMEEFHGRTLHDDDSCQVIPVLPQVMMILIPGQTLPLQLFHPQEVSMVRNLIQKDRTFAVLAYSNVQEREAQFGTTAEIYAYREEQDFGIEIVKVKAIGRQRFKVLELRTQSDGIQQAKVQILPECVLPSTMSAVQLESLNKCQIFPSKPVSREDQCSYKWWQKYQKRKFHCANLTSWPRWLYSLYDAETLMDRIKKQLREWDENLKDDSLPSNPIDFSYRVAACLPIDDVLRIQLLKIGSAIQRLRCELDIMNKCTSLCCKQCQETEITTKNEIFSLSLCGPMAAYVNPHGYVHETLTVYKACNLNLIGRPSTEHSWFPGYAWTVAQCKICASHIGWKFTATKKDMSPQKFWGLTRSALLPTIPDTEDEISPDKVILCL
assay: log2 fold change of degron read counts, EGFP-low vs EGFP+ sorted cells (limma voom), compound-induced degradation; higher = more compound-induced degradation of the degron-EGFP fusion; degrons are variants of IKZF1/3 zinc finger 2; compound dose not given here
assayContext: Jurkat; 18 h; compound: thalidomide
Whole data set: some 8,300 sequences, median “log2 fold change of degron read counts, EGFP-low vs EGFP+ sorted cells (limma voom), compound-induced degradation” near -1.1, cut for the highest 2% near 3.2. The sample holds the highest values, similar sequences and a random draw of the others, so the mix is not that of the screen.
# key: entry, value: log2 fold change of degron read counts
Lab note: write the figure by itself, no unit.

# annotated cases, reported log2 fold change of degron read counts shown
- macromoleculeSequence: "FTCEQCGAQFTQKGNLLRHIKL [46F_47T_49E_50Q_52G_53A_54Q_55F_67L_, Q9UKT9]"
  testResult: -0.012
- macromoleculeSequence: "FWCPICGREFTQKGNLLRHIKL [46F_47W_49P_50I_52G_53R_54E_55F_67L_, Q9UKT9]"
  testResult: -0.495
- macromoleculeSequence: "FYCEQCGALFTQKGNLLRHIKL [46F_47Y_49E_50Q_52G_53A_54L_55F_67L_, Q9UKT9]"
  testResult: -1.75
- macromoleculeSequence: "FLCNICGAAFTQKGNLLRHIKL [46F_47L_49N_50I_52G_53A_54A_55F_67L_, Q9UKT9]"
  testResult: 0.231

// log2 fold change of degron read counts lookup, key: FACPVCGAMFTQKGNLLRHIKL [46F_47A_49P_50V_52G_53A_54M_55F_67L_, Q9UKT9]
-0.0754

What log2 fold change of degron read counts value was documented for this sequence, LWCEICGFSCTQKGNLLRHIKL [46L_47W_49E_50I_52G_53F_54S_55C_67L_, Q9UKT9] ?
1.89

Name the recorded log2 fold change of degron read counts for FDCNQCGHQFTQKGNLLRHIKL [46F_47D_49N_50Q_52G_53H_54Q_55F_67L_, Q9UKT9] .
-2.65

Would you kindly share the measured log2 fold change of degron read counts for FMCEQCGAYFTQKGNLLRHIKL [46F_47M_49E_50Q_52G_53A_54Y_55F_67L_, Q9UKT9] ?
-2.25

Which measured log2 fold change of degron read counts value corresponds to FECPICGHKFTQKGNLLRHIKL [46F_47E_49P_50I_52G_53H_54K_55F_67L_, Q9UKT9] ?
-1.19

Given the sequence FMCPICGAWFTQKGNLLRHIKL [46F_47M_49P_50I_52G_53A_54W_55F_67L_, Q9UKT9] , what is its reported log2 fold change of degron read counts?
-0.221

Which measured log2 fold change of degron read counts value corresponds to FSCPVCGAMFTQKGNLLRHIKL [46F_47S_49P_50V_52G_53A_54M_55F_67L_, Q9UKT9] ?
0.449

What value of log2 fold change of degron read counts has been recorded for this entry: FMCNVCGAAFTQKGNLLRHIKL [46F_47M_49N_50V_52G_53A_54A_55F_67L_, Q9UKT9]
0.272
